// provenance: PubChem BioAssay AID1662

Assay Details: kanamycin survival loss of SKKanGAS strain – BacTiter-Glo luminescence, streptokinase expression inhibitor project, primary screen (AID 1662);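 further: strain carries kanamycin resistance gene driven by streptokinase promoter and grows in 40 µg/ml kanamycin; loss of luminescence reflects streptokinase promoter inhibition or plain growth inhibition; 0% = median of DMSO wells and 100% = positive control at its reference dose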
Protocol Conditions: S. pyogenes SKKanGAS, kanamycin growth, 6 h, at 7.5 µM
The whole screen tested about 300,000 compounds, of which about 4,000 (1.3%) were called active.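 How the source made its calls: active means mean replicate score, as percent of positive control median, at least 50; inconclusive means mean below 50 but one replicate at or above 50; inactive means mean and every replicate below 50.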 Shown is part of a subset that was picked to be rich in actives.
Labels: active, inactive

[[record]]
molecule = "COc1cccc(/C=N/Nc2ncc(C(F)(F)F)cc2Cl)c1O"
assigned_class = "active"

[[record]]
molecule = "COc1ccc(-c2cc(=O)oc3cc(OC(C)C(=O)Nc4ccc(CN5CCOCC5)cc4)ccc23)cc1 (stereo not given)"
assigned_class = "inactive"

[[record]]
molecule = "Cc1ccc(C2(c3ccc(C)cc3)NC(=O)N(Cc3c(C)noc3C)C2=O)cc1"
assigned_class = "inactive"

[[record]]
molecule = "CC(=O)Oc1ccc(-c2cccc(C(=O)N3CCCCC3)c2)cc1"
assigned_class = "inactive"

[[record]]
molecule = "COc1ccc(-n2c(SCC(=O)Nc3ccc4c(c3)OCO4)nnc2C(C)N2CCCCC2)cc1 (stereo not given)"
assigned_class = "inactive"


###

Assay Details: kanamycin survival loss of SKKanGAS strain – BacTiter-Glo luminescence, streptokinase expression inhibitor project, primary screen (AID 1662);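 further: strain carries kanamycin resistance gene driven by streptokinase promoter and grows in 40 µg/ml kanamycin; loss of luminescence reflects streptokinase promoter inhibition or plain growth inhibition; 0% = median of DMSO wells and 100% = positive control at its reference dose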
Protocol Conditions: S. pyogenes SKKanGAS, kanamycin growth, 6 h, at 7.5 µM, stronger effect = higher value
The campaign covered roughly 300,000 compounds. About 4,000 (1.3%) were called active. Many of the other results were omitted from the sample, so actives are more common in it than they were.
Quantity Kind: inhibition (%)

[[record]]
compound = "COc1ccccc1-c1nnc(NC(=O)c2ccc3ncsc3c2)o1"
measurement = 20

[[record]]
compound = "COc1ccc(OC)c(NC(=O)c2ccc3c(c2)CCN3S(C)(=O)=O)c1"
measurement = -4.51

[[record]]
compound = "CC(C)S(=O)(=O)c1csc(NC(=O)Nc2ccc(Cl)cc2)c1Cl"
measurement = 60

[[record]]
compound = "Cc1cccc(NC(=S)Nc2ccc3cn[nH]c3c2)c1"
measurement = 2.46

[[record]]
compound = "CC1=C(C(=O)Nc2ccccc2)C(c2cccs2)C(C#N)=C(SCC#N)N1 (centres undefined)"
measurement = 15.4

[[record]]
compound = "CC1COc2ccccc2N1C(=O)c1ccc(F)cc1 (centres undefined)"
measurement = 0.0101

[[record]]
compound = "CCCCCC(O)c1cccc(OCc2ccc3ccccc3n2)c1 (centres undefined)"
measurement = 15.6

[[record]]
compound = "Cc1ccc2c(C)c(C(=O)N3CCN(c4ccncc4)CC3)oc2c1C"
measurement = 4.31

[[record]]
compound = "Cc1cccc(C(=O)NC(=S)N(C)C2CCCCC2)c1"
measurement = 55.3

[[record]]
compound = "CCCCc1nc(NCc2ccccc2)c(C#N)c2c1CCCC2"
measurement = 60

[[record]]
compound = "CCCCC(NS(=O)(=O)c1ccc(C)cc1)C(=O)Oc1ccc2c3c(c(=O)oc2c1)CCC3 (centres undefined)"
measurement = 8.5

[[record]]
compound = "O=C(Nc1nnc(C2=COCCO2)o1)c1ccc([N+](=O)[O-])s1"
measurement = 63.4

[[record]]
compound = "Cc1cccc(NC(=S)Nc2ccc(Cl)c(Cl)c2)c1"
measurement = 82

[[record]]
compound = "CC(=O)N[C@H]1[C@H]([C@H](O)[C@H](O)CO)OC(C(=O)O)=C[C@@H]1O"
measurement = -0.96

[[record]]
compound = "O=[N+]([O-])c1ccc(NCCCO)c(C(F)(F)F)c1"
measurement = 0.29

[[record]]
compound = "O=C(CN(CC1CCCO1)C(=O)CNS(=O)(=O)c1ccc(Cl)cc1)NCc1ccccc1 (centres undefined)"
measurement = -3.12

[[record]]
compound = "Cn1ccc(=Nc2ccc(NC(=O)c3ccc(N=c4ccn(C)c5ccc([N+](=O)[O-])cc45)cc3)cc2)cc1"
measurement = 75.8

[[record]]
compound = "Cc1noc(C)c1C(=O)N(CC(=O)NC1CCCC1)Cc1ccccc1F"
measurement = 2.6

[[record]]
compound = "CCOc1ccc(C(=O)Nc2c3c(nn2-c2ccccc2)CS(=O)(=O)C3)cc1"
measurement = 1.84

[[record]]
compound = "Cc1nc2ccc(S(=O)(=O)N(C)CC(=O)NC(C)c3ccccc3)cc2s1 (centres undefined)"
measurement = -15

[[record]]
compound = "COc1ccccc1OCC(=O)Nc1c2c(nn1-c1ccc(F)cc1)CS(=O)(=O)C2"
measurement = 74.3

[[record]]
compound = "O=C(NCCOc1ccccc1F)Nc1ccc(Br)cc1"
measurement = -7.4

[[record]]
compound = "COc1ccccc1CCC(=O)NNC(=O)c1ccncc1"
measurement = -5.32

[[record]]
compound = "CN(C(=O)CN1C(=O)NC(C)(CCc2ccccc2)C1=O)c1ccccc1 (centres undefined)"
measurement = -1.34

[[record]]
compound = "Cc1ccc(C(CNC(=O)Nc2cccc(C)c2)N2CCN(C)CC2)cc1 (centres undefined)"
measurement = -5.31

[[record]]
compound = "COc1cc(C2C(C(=O)c3ccco3)=C(O)C(=O)N2c2cc(C)on2)ccc1OCc1ccccc1 (centres undefined)"
measurement = 2.64

[[record]]
compound = "CCc1nc(NCCO)c(C#N)c2c1CCCC2"
measurement = -3.02

[[record]]
compound = "Cc1cc(N2C(=O)C(O)=C(C(=O)c3ccc(C)o3)C2c2ccc(OCc3ccccc3)cc2)no1 (centres undefined)"
measurement = 106

[[record]]
compound = "CCOC(=O)C(C)n1cnc2sc(C)c(C)c2c1=O (centres undefined)"
measurement = 2.1

[[record]]
compound = "Cc1cccc(OC(=O)c2sc3ncn(C)c(=O)c3c2C)c1"
measurement = 82.2

[[record]]
compound = "Cc1ccc(C(=O)Nc2nnc(C3=COCCO3)o2)cc1C"
measurement = 85.9

[[record]]
compound = "Cn1ccc(NC(=O)Nc2ccc(Cl)cc2)n1"
measurement = -3.73

[[record]]
compound = "COc1ccc(C(CNC(=O)c2cc3c(s2)CCCC3)N2CCOCC2)cc1 (centres undefined)"
measurement = -4.29

[[record]]
compound = "C=CCOc1cccc(C2C(C(=O)c3ccc(C)o3)=C(O)C(=O)N2c2nnc(C)s2)c1 (centres undefined)"
measurement = 7.43

[[record]]
compound = "O=C(Nc1nnc(-c2ccco2)o1)c1ccc(S(=O)(=O)N2CCOCC2)cc1"
measurement = 1.36

[[record]]
compound = "Clc1cccc(N=C2NN=C(c3ccc4c(c3)OCCO4)CS2)c1"
measurement = 21.6

[[record]]
compound = "COc1ccccc1CNS(=O)(=O)c1cc2c3c(c1)CCC(=O)N3CCC2"
measurement = -8.56

[[record]]
compound = "CC1=C2C(=O)OC(c3ccoc3)C2(C)CCC1 (centres undefined)"
measurement = -13.7

[[record]]
compound = "Cc1nn2c(NCCN(C)C)c3c(nc2c1-c1ccccc1)CCC3"
measurement = 6.41

[[record]]
compound = "COc1ccc(N2CCN(C(C)=C3C(=O)c4ccccc4C3=O)CC2)cc1"
measurement = 0.489

[[record]]
compound = "Cc1cc([N+](=O)[O-])ccc1NC(=O)c1ccc(NC(=O)C(C)C)cc1"
measurement = 10.6

[[record]]
compound = "O=C(CC1CCCCC1)Nc1c2c(nn1-c1ccc(F)cc1)CS(=O)(=O)C2"
measurement = -9.45

[[record]]
compound = "Cc1ccc(-n2[nH]c(C)c(/C=N/NC(=O)c3cccc([N+](=O)[O-])c3)c2=O)cc1C"
measurement = 91.5

[[record]]
compound = "CN(C)c1nc(=Nc2cccc(Cl)c2)ss1"
measurement = 53.2


###

Assay Details: kanamycin survival loss of SKKanGAS strain – BacTiter-Glo luminescence, streptokinase expression inhibitor project, primary screen (AID 1662);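 further: strain carries kanamycin resistance gene driven by streptokinase promoter and grows in 40 µg/ml kanamycin; loss of luminescence reflects streptokinase promoter inhibition or plain growth inhibition; 0% = median of DMSO wells and 100% = positive control at its reference dose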
Protocol Conditions: S. pyogenes SKKanGAS, kanamycin growth, 6 h, at 7.5 µM, stronger effect = higher value
Screen size: about 300,000 compounds; about 4,000 (1.3%) were called active. The full list was thinned out, with actives kept by preference.
# inhibition values compiled below
Quantity Kind: inhibition (%)

[[record]]
compound = "O=C(CCCO)N/N=C/c1cc(Br)ccc1O"
unit_abbrev = "%"
measurement = -3.72

[[record]]
compound = "O=C(NCc1nnc(SCC(=O)N2CCCc3ccccc32)o1)c1ccccc1F"
unit_abbrev = "%"
measurement = 3.7

[[record]]
compound = "O=c1c2cc(Br)ccc2nc(-c2cccc(Cl)c2)n1O"
unit_abbrev = "%"
measurement = 78.4

[[record]]
compound = "Cc1nnc(SCC(=O)NC2CCCC2)s1"
unit_abbrev = "%"
measurement = -0.971

[[record]]
compound = "CSc1ncccc1C(=O)NCc1ccccc1Cl"
unit_abbrev = "%"
measurement = -1.26

[[record]]
compound = "CC(C)Oc1ccc(/C=N/NC(=O)c2nnn(-c3nonc3N)c2CN(C)C2CCCCC2)cc1"
unit_abbrev = "%"
measurement = 18.9

[[record]]
compound = "NCC(=O)c1cccc2ccc[n+]([O-])c12"
unit_abbrev = "%"
measurement = -3.82

[[record]]
compound = "Cc1ccccc1C(=O)OC1OC(=O)C(Cl)=C1Nc1ccccc1 (stereo not drawn)"
unit_abbrev = "%"
measurement = 3.76

[[record]]
compound = "COC(=O)CNC(c1ccccc1Cl)c1cc(Br)ccc1NC(=O)CCN1CCOCC1 (stereo not drawn)"
unit_abbrev = "%"
measurement = -3.8

[[record]]
compound = "Cc1ccc(NC2=C(Cl)C(=O)OC2OC(=O)c2ccccc2C)cc1 (stereo not drawn)"
unit_abbrev = "%"
measurement = 66

[[record]]
compound = "Oc1ccc(Br)cc1/C=N/Nc1ccccn1"
unit_abbrev = "%"
measurement = 106

[[record]]
compound = "CCC(=O)Nc1ccc(-c2ccc(N3CCCCC3)nn2)cc1"
unit_abbrev = "%"
measurement = 1.15

[[record]]
compound = "COc1ccccc1N1CCN(c2ncnc3sc(C)c(-c4ccccc4)c23)CC1"
unit_abbrev = "%"
measurement = 35.4

[[record]]
compound = "Cn1ncc2c(NNC(=O)Cc3cccc4ccccc34)ncnc21"
unit_abbrev = "%"
measurement = -0.379

[[record]]
compound = "CC1CCN(C(NC(=O)c2ccco2)C(=O)c2ccccc2)CC1 (stereo not drawn)"
unit_abbrev = "%"
measurement = -2.13

[[record]]
compound = "COc1ccc(C(=O)NCC(=O)N/N=C/c2ccc([N+](=O)[O-])s2)cc1OC"
unit_abbrev = "%"
measurement = -2.08

[[record]]
compound = "Cc1cc(C(=O)CCC(=O)NNC(=O)c2ccccc2O)c(C)s1"
unit_abbrev = "%"
measurement = 12.7

[[record]]
compound = "CC(C)(C)c1cc(C(=O)N/N=C/c2ccc([N+](=O)[O-])s2)n[nH]1"
unit_abbrev = "%"
measurement = 51.8

[[record]]
compound = "Cc1cc(C)cc(C(=O)NC2C(=O)N3C(C(=O)O)=C(CSc4nnc(C)s4)CSC23)c1 (stereo not drawn)"
unit_abbrev = "%"
measurement = 96.4

[[record]]
compound = "Cc1nnc(SCC2=C(C(=O)O)N3C(=O)C(NC(=O)Cn4nc(C)c(Cl)c4C)C3SC2)s1 (stereo not drawn)"
unit_abbrev = "%"
measurement = 88.3

[[record]]
compound = "COc1ccccc1C(C)NC(=O)Cc1ccsc1 (stereo not drawn)"
unit_abbrev = "%"
measurement = 5.44

[[record]]
compound = "O=C(Nc1ccc(F)cc1)c1ccc(S(=O)(=O)NCc2cccnc2)cc1"
unit_abbrev = "%"
measurement = -0.655

[[record]]
compound = "O=C1/C(=C\\c2ccccc2Cl)SC(=S)N1CCC(=O)N1CCCc2ccccc21"
unit_abbrev = "%"
measurement = -4.28

